Experiment: in vivo
Conditions: male, mouse, po, 20 mg/kg
measured property: AUC(0-inf) (ng·h/mL)

molecule="Cc1nnc(-c2noc3c(F)c4c(cc23)CC2(C(=O)NC(=O)NC2=O)[C@H]2[C@H](C)O[C@H](C)CN42)o1 [Compound 22]" readout_value=24600

----------
Test: in vivo
Settings: male, mouse, po, 500 mg/kg
measured property: AUC(0-inf) (µg·h/mL)

chemical_string=Cc1nnc(-c2noc3c(F)c4c(cc23)CC2(C(=O)NC(=O)NC2=O)[C@H]2[C@H](C)O[C@H](C)CN42)o1 measured_property=AUC(0-inf) readout_value=1440

----------
Experiment: in vivo
Conditions: male, mouse, po, 100 mg/kg
measured property: Tmax

chemical_string=Cc1nnc(-c2noc3c(F)c4c(cc23)CC2(C(=O)NC(=O)NC2=O)[C@H]2[C@H](C)O[C@H](C)CN42)o1 measured_property=Tmax readout_value="2.8 h"

Values from paper PMC9017349
